# testSystem: human α1H T-type channels (Homo sapiens)
# Sequence (O95180 whole entry): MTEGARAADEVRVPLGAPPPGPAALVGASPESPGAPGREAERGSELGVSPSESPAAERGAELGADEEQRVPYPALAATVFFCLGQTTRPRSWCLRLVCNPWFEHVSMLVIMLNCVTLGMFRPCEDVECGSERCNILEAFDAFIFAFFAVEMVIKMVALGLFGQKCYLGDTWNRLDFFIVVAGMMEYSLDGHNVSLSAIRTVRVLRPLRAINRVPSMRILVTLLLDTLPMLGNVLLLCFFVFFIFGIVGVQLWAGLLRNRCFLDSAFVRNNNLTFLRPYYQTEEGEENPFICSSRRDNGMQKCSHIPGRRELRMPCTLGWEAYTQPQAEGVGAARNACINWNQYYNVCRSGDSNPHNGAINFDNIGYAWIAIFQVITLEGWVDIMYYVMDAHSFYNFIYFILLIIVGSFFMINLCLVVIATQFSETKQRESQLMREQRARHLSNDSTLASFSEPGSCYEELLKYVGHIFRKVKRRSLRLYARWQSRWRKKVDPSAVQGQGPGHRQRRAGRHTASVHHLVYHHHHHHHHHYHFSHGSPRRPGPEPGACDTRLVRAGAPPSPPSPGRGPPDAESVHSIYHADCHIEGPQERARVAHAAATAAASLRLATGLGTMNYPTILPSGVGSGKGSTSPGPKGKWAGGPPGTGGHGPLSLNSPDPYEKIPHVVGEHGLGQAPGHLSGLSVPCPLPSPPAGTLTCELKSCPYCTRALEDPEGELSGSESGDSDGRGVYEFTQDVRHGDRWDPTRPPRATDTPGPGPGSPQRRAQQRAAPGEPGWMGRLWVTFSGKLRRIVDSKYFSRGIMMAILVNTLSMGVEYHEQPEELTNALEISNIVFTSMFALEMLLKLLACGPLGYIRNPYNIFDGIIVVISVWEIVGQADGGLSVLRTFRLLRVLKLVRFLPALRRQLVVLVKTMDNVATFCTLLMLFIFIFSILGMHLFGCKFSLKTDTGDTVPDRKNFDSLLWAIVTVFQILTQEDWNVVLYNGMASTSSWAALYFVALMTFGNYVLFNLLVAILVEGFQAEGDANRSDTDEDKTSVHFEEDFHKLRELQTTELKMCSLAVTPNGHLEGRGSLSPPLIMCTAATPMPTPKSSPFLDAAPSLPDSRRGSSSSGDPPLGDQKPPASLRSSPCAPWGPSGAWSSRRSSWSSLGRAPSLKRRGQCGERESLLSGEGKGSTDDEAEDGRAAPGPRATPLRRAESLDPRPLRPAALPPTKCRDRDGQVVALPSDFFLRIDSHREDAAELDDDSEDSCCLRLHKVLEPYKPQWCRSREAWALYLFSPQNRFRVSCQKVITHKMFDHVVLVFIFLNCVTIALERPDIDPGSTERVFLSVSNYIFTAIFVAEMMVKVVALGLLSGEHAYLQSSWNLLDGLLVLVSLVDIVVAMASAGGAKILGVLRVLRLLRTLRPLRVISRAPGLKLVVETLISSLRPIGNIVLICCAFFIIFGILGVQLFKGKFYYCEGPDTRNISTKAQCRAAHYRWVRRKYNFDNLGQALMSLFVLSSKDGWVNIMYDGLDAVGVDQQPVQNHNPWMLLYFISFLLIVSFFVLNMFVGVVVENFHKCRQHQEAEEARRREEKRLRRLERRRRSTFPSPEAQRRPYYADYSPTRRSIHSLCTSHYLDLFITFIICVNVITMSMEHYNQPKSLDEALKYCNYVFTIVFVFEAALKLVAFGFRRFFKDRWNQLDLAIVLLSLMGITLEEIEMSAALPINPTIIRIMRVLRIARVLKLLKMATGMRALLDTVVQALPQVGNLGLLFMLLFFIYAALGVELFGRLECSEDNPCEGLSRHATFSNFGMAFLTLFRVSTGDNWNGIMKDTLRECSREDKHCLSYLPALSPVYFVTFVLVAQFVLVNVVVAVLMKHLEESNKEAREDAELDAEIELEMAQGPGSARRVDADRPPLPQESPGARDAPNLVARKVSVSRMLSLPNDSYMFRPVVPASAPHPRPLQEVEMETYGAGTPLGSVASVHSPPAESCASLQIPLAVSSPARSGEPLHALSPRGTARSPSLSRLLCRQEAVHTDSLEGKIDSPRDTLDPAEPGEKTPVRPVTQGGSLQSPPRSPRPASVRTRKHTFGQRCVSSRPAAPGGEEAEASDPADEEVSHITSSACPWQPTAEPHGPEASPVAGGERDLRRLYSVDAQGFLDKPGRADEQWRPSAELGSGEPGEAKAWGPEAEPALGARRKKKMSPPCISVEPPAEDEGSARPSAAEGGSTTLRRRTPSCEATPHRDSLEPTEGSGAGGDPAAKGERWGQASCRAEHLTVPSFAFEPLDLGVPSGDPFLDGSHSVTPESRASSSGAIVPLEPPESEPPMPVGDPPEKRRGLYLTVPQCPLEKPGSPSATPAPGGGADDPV
# experimentDescription: T-type calcium channel block, whole cell patch clamp in HEK cells
# appliedConditions: HEK cells stably expressing human α1H; measured at 1 μM drug; mainly non-inactivated protocol
outcomeMeasure: Kd (nM)

Illustrative cases are given below, each with its answer.
compoundstructure=Cc1c(C(=O)N2CCCCC2)sc2ncn(CC(=O)Nc3cc(C(F)(F)F)cc(C(F)(F)F)c3)c(=O)c12 outcomemeasure=Kd testresult=2730
compoundstructure=Cc1c(C(=O)N2CCN(c3ccccc3)CC2)sc2ncn(CC(=O)NC3CCCCC3)c(=O)c12 outcomemeasure=Kd testresult=360
compoundstructure=Cc1c(C(=O)N2CCN(c3ccccc3F)CC2)sc2ncn(CC(=O)NC3CCCCC3)c(=O)c12 outcomemeasure=Kd testresult=280
compoundstructure=CCN(CC)C(=O)Cn1cnc2sc(C(=O)N3CCN(c4cccc(Cl)c4)CC3)c(C)c2c1=O outcomemeasure=Kd testresult=890
compoundstructure=Cc1c(C(=O)N2CCN(c3cccc(F)c3)CC2)sc2ncn(CC(=O)NC3CCCCC3)c(=O)c12 outcomemeasure=Kd testresult=190
compoundstructure=Cc1c(C(=O)N2CCN(c3ccc(Cl)cc3)CC2)sc2ncn(CC(=O)NC(C)(C)C)c(=O)c12 outcomemeasure=Kd testresult=870
compoundstructure=Cc1c(C(=O)N2CCN(c3ccccc3F)CC2)sc2ncn(CC(=O)Nc3cc(C(F)(F)F)cc(C(F)(F)F)c3)c(=O)c12 outcomemeasure=Kd testresult=700
compoundstructure=Cc1c(C(=O)N2CCN(c3ccc(Cl)c(C(F)(F)F)c3)CC2)sc2ncn(CC(=O)NC3CCCC3)c(=O)c12 outcomemeasure=Kd testresult=100

(1) Cc1c(C(=O)N2CCN(c3ccccc3F)CC2)sc2ncn(CC(=O)N3CCCCC3)c(=O)c12
(2) CCN(CC)C(=O)Cn1cnc2sc(C(=O)N3CCN(c4ccc(Cl)c(Cl)c4)CC3)c(C)c2c1=O
Could you tell me which of 1 and 2 has the lower Kd reading? Respond with the label that goes with your answer.
2
(2: 340 nM, 1: 720 nM)

(a) Cc1c(C(=O)N2CCN(c3cccc(Cl)c3)CC2)sc2ncn(CC(=O)NC3CCCC3)c(=O)c12
(b) CCN(CC)C(=O)Cn1cnc2sc(C(=O)N3CCN(c4ccc(C(F)(F)F)cc4)CC3)c(C)c2c1=O
(c) Cc1c(C(=O)N2CCN(c3ccccc3F)CC2)sc2ncn(CC(=O)Nc3ccccc3)c(=O)c12
Sort the 3 molecules by Kd; largest first, smallest last. Give the order by naming the labels one after another as requested.
c, b, a

(P) CCN(CC(F)(F)F)C(=O)Cn1cnc2sc(C(=O)N3CCN(c4cccc(Cl)c4)CC3)c(C)c2c1=O
(Q) Cc1c(C(=O)N2CCN(c3cccc(Cl)c3)CC2)sc2ncn(CC(=O)N3CCC(F)(F)C3)c(=O)c12
Which item exceeds the other in Kd, P or Q ? Respond with the label that goes with your answer.
P
(P: 630 nM, Q: 400 nM)
